Experiment: Phase I clinical trial, food effect part: pharmacokinetics of C21 fed vs fasted
Type: in vivo, human
Conditions: both sexes, human, plasma, po, 75 mg, single oral dose 75 mg, Fasted, N = 9; read-out: AUC(0-t), Geometric Mean
Procedure: In addition, the effect of food on the pharmacokinetics (PK) of C21 was investigated in an open label manner in 10 male and female subjects at a single oral dose of 75 mg. […] Plasma concentrations below the lower limit of quantification (LLOQ) were presented as below the lower limit of quantification (BLQ). […] All BLQ values pre-dose and in the absorption phase prior to the first quantifiable concentration were substituted by zeros. […]
Quantity kind: AUC(0-t) (ng·h/mL)
Enter your answer as a number in ng·h/mL; do not include the unit.

**Query** Returns the measured AUC(0-t) for the input molecule. Input: CCCCOC(=O)NS(=O)(=O)c1sc(CC(C)C)cc1-c1ccc(Cn2ccnc2)cc1
**Result** 1750

Data origin: patent US12121614B2
